target: GPR84 (Homo sapiens); test: Human neutrophil migration inhibition assay, Embelin as chemotactic agent; conditions: human neutrophils, Embelin as chemotactic agent; read-out: Embelin-induced neutrophil chemotaxis IC50
Sequence (Q9NQS5 whole entry): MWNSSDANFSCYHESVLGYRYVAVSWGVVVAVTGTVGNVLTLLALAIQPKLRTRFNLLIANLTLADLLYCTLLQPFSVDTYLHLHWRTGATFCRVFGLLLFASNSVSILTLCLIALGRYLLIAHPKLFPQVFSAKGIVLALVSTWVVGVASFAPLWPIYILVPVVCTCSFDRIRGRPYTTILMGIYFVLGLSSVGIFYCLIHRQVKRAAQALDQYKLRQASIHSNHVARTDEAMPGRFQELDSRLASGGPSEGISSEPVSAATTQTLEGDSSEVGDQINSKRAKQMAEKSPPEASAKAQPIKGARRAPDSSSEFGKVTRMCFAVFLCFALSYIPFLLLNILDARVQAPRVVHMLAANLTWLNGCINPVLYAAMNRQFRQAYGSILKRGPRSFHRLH
pIC50: −log10 of the molar value.
Each entry gets false (0) if its pIC50 stays under 8, and true (1) if its pIC50 is 8 or above.

[
  {
    "compound": "CCCC(O)C#Cc1ccc2c(c1)CCn1c-2cc(OCC2COCCO2)nc1=O (stereo not drawn)",
    "class": "true (1)"
  },
  {
    "compound": "O=c1nc(OC[C@@H]2COCCO2)cc2n1CCc1cc(OCC3CCCCO3)ccc1-2 (stereo partly drawn)",
    "class": "false (0)"
  },
  {
    "compound": "O=c1nc(OCC2COCCO2)cc2n1CCc1cc(CCC(O)c3cccnc3)ccc1-2 (stereo not drawn)",
    "class": "false (0)"
  },
  {
    "compound": "CCC(C)(C)CNc1ccc2c(c1)CCn1c-2cc(OC[C@@H]2COCCO2)nc1=O",
    "class": "false (0)"
  },
  {
    "compound": "CC(C)C#Cc1ccc2c(c1)CCn1c-2cc(OC[C@@H]2COCCO2)nc1=O",
    "class": "false (0)"
  },
  {
    "compound": "CC(O)CCCc1ccc2c(c1)CCn1c-2cc(OC[C@@H]2COCCO2)nc1=O (stereo partly drawn)",
    "class": "true (1)"
  }
]

---

molecular target: UniProt Q9NQS5; experiment: Human neutrophil migration inhibition assay, Embelin as chemotactic agent; assay type: cell-based; conditions: 5 μM Embelin; compound 1 μM; read-out: Percentage of chemotaxis inhibition (PIN) @ 1 μM
Each entry gets 0 (no) if its inhibition at 1 µM stays under 90%, and 1 (yes) if its inhibition at 1 µM is 90% or above.

[
  {
    "molecule": "O=c1nc(OC[C@@H]2COCCO2)cc2n1CCc1cc(OCC3CCCCO3)ccc1-2 (stereo partly drawn) [Cpd 9]",
    "class": "1 (yes)"
  },
  {
    "molecule": "O=c1nc(OCC2COCCO2)cc2n1CCc1cc(C#CCNc3ccccc3)ccc1-2 (stereo not drawn) [Cpd 3]",
    "class": "0 (no)"
  },
  {
    "molecule": "O=c1nc(OC[C@@H]2COCCO2)cc2n1CCc1cc(CCCNc3ccccc3)ccc1-2 [Cpd 10]",
    "class": "0 (no)"
  },
  {
    "molecule": "CCC(C)(C)CNc1ccc2c(c1)CCn1c-2cc(OC[C@@H]2COCCO2)nc1=O [Cpd 8]",
    "class": "1 (yes)"
  },
  {
    "molecule": "O=c1nc(OCC2COCCO2)cc2n1CCc1cc(OCc3noc(C4CC4)n3)ccc1-2 (stereo not drawn) [Cpd 1]",
    "class": "0 (no)"
  },
  {
    "molecule": "CCCC(O)C#Cc1ccc2c(c1)CCn1c-2cc(OCC2COCCO2)nc1=O (stereo not drawn) [Cpd 2]",
    "class": "1 (yes)"
  },
  {
    "molecule": "CC(C)C#Cc1ccc2c(c1)CCn1c-2cc(OC[C@@H]2COCCO2)nc1=O [Cpd 5]",
    "class": "1 (yes)"
  }
]

---

Recorded EC50 by entry
Molecular target: UniProtKB Q9NQS5
Test: Functional GPR84 activation assay: GTP-γS binding assay
Conditions: membranes over expressing GPR84; 3,3′ di indolylmethane at EC80; read-out: GTPgS binding EC50
Protocol: The following assay can be used for determination of GPR84 activation. The assay is performed in a 96 well plate where the following reagents were added. […] Plates are read on a Topcount reader (Perkin Elmer) immediately after centrifugation (readout time, 1 min/well).
property_label: EC50

[
  {
    "molecule": "O=c1nc(OC[C@@H]2COCCO2)cc2n1CCc1cc(OCC3CCCCO3)ccc1-2 (some centres unmarked) [Cpd 9]",
    "result": "75 nM"
  },
  {
    "molecule": "O=c1nc(OCC2COCCO2)cc2n1CCc1cc(C#CCNc3ccccc3)ccc1-2 (centres unmarked) [Cpd 3]",
    "result": "25 nM"
  },
  {
    "molecule": "O=c1nc(OC[C@@H]2COCCO2)cc2n1CCc1cc(CCCNc3ccccc3)ccc1-2 [Cpd 10]",
    "result": "8 nM"
  },
  {
    "molecule": "CCCC(O)C#Cc1ccc2c(c1)CCn1c-2cc(OCC2COCCO2)nc1=O (centres unmarked) [Cpd 2]",
    "result": "40 nM"
  },
  {
    "molecule": "O=c1nc(OCC2COCCO2)cc2n1CCc1cc(CCC(O)c3cccnc3)ccc1-2 (centres unmarked) [Cpd 7]",
    "result": "41 nM"
  },
  {
    "molecule": "O=c1nc(OCC2COCCO2)cc2n1CCc1cc(OCc3noc(C4CC4)n3)ccc1-2 (centres unmarked) [Cpd 1]",
    "result": "36 nM"
  },
  {
    "molecule": "CC(C)C#Cc1ccc2c(c1)CCn1c-2cc(OC[C@@H]2COCCO2)nc1=O [Cpd 5]",
    "result": "77 nM"
  },
  {
    "molecule": "CCC(C)(C)CNc1ccc2c(c1)CCn1c-2cc(OC[C@@H]2COCCO2)nc1=O [Cpd 8]",
    "result": "69 nM"
  }
]
